Taken from patent US10526311B2.

Tested on: SJSA-1 (MDM2 amplified, p53 wild-type osteosarcoma)
PROTOCOL_SUMMARY: Protocol A: SJSA-1 growth inhibition (SRB)
CONDITION_INFO: read-out: SJSA-1 IC50 (Protocol A); SJSA-1 cells, SRB, 72 hrs
EXPERIMENTAL_ENDPOINT: IC50 (nM)
One number for each entry, in nM.

Query :: Given the compound CC(O)(CO)c1cc(F)c2c(c1)C(=O)N(Cc1ccc(Cl)cn1)[C@@]2(OCC1(CO)CC1)c1ccc(Cl)cc1 (stereo partly shown) , what is its reported IC50?
Result :: 100

---

TARGET_UNDER_TEST: MDM2-p53 interaction (in vitro translated MDM2, biotinylated IP3 peptide) (Homo sapiens, UniProt Q00987)
Sequence (Q00987 whole entry): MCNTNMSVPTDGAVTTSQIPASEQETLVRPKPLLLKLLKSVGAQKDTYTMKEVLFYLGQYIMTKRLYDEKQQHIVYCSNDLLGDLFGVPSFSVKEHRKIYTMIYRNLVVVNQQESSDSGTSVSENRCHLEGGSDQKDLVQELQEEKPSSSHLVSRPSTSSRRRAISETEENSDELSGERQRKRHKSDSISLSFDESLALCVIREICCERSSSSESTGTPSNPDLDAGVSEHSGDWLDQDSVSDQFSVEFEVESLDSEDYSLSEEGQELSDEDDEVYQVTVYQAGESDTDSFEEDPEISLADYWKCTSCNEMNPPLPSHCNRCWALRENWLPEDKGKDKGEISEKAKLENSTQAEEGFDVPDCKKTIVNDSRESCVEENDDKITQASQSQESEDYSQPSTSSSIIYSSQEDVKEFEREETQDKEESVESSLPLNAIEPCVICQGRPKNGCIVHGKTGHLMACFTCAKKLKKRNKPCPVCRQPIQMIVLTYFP
PROTOCOL_SUMMARY: MDM2-p53 interaction 96-well plate binding assay (ELISA)
CONDITION_INFO: @ 0.030 μM; read-out: MDM2 % @ concentration
EXPERIMENTAL_ENDPOINT: inhibition at 0.03 µM (%)
Numbers only, in %.

Sample answers from the record:
Query :: For the molecule shown here, CCC(O)(c1cc(F)c2c(c1)C(=O)N(Cc1ccc(C#N)cn1)[C@@]2(O[C@H]1C[C@@H](O)C1)c1ccc(Cl)cc1)[C@H]1CC[C@H](O)CC1 (single isomer, unassigned) , give the reported inhibition at 0.03 µM.
Result :: 32

Query :: Form field: reported inhibition at 0.03 µM of CC(C)(O)c1cc(F)c2c(c1)C(=O)N(Cc1ccc(Cl)cn1)[C@@]2(OCC1(CNCCO)CC1)c1ccc(Cl)cc1
Result :: 50

Query :: Given the entry Cn1cc(C(C)(O)c2cc(F)c3c(c2)C(=O)N(Cc2ncc(F)cc2F)[C@@]3(OCC2(O)CC2)c2ccc(Cl)cc2)cn1 (single isomer, unassigned) , report its measured inhibition at 0.03 µM.
Result :: 54

With those in mind, consider the next molecule.
Query :: I am curious: what inhibition at 0.03 µM value has been reported for CC(C)(O)c1cc(F)c2c(c1)C(=O)N([C@H](c1ccc(Cl)cn1)C(O)CO)[C@@]2(OCC1(O)CC1)c1ccc(Cl)cc1 (stereo partly shown) ?
Result :: 49

---

Provide the recorded inhibition at 0.001 µM for the entries that follow.
TARGET_UNDER_TEST: MDM2-p53 interaction (in vitro translated MDM2, biotinylated IP3 peptide) (Homo sapiens, UniProt Q00987)
PROTOCOL_SUMMARY: MDM2-p53 interaction 96-well plate binding assay (ELISA)
CONDITION_INFO: @ 0.0010 μM; read-out: MDM2 % @ concentration
Numbers only, in %.

Field: example entries. Status: answers known.
Query :: // query inhibition at 0.001 µM value for entry CCC(O)(c1cc(F)c2c(c1)C(=O)N(Cc1ccc(C#N)cn1)[C@@]2(O[C@H]1C[C@@H](O)C1)c1ccc(Cl)cc1)[C@H]1CC[C@H](O)CC1 (single isomer, unassigned) [Example 518]
Result :: 79

Query :: For the molecule CCC(O)(c1cc(F)c2c(c1)C(=O)N(Cc1ccc(C#N)cn1)[C@@]2(O[C@H]1CCOC1)c1ccc(Cl)cc1)c1cnn(C)c1 (single isomer, unassigned) [Example 358] , what inhibition at 0.001 µM is on record?
Result :: 74

Query :: State the recorded inhibition at 0.001 µM for this entry: Cn1cc(C(C)(O)c2cc(F)c3c(c2)C(=O)N(Cc2ccc(Cl)c[n+]2[O-])[C@@]3(OCC2(CO)CC2)c2ccc(Cl)cc2)cn1 (single isomer, unassigned) [Example 407]
Result :: 62

Query :: Any idea what its inhibition at 0.001 µM is? The molecule is CC(=O)N1CCC(C(C)(O)c2cc(F)c3c(c2)C(=O)N(Cc2ccc(Cl)cn2)[C@@]3(OCC2(C#N)CC2)c2ccc(Cl)cc2)CC1 (single isomer, unassigned) [Example 301]
Result :: 75

Query :: Value lookup for inhibition at 0.001 µM; key = CCC(O)(c1cc(F)c2c(c1)C(=O)N(Cc1ncc(C#N)cn1)[C@@]2(O[C@H]1CCOC1)c1ccc(Cl)cc1)[C@H]1CC[C@H](O)CC1 (stereo partly shown) [Example 503]
Result :: 87

I have 2 molecules here; please give me inhibition at 0.001 µM for each one.
1. CO[C@]1(c2ccc(Cl)cc2)c2c(F)cc(C(C)(O)C3CCN(C(=O)CO)CC3)cc2C(=O)N1Cc1ccc(Cl)cn1 (single isomer, unassigned) [Example 296]
2. CN1CCC(C(C)(O)c2cc(F)c3c(c2)C(=O)N(Cc2ccc(Cl)cn2)[C@@]3(OCC2(CO)CC2)c2ccc(Cl)cc2)CC1 (single isomer, unassigned) [Example 555]

Result ::
[62, 55]

---

TARGET_UNDER_TEST: MDM2-p53 interaction (in vitro translated MDM2, biotinylated IP3 peptide) (Homo sapiens)
PROTOCOL_SUMMARY: MDM2-p53 interaction 96-well plate binding assay (ELISA)
EXPERIMENTAL_ENDPOINT: IC50 (nM)
One number for each entry, in nM.

# annotated cases, reported IC50 shown
Query :: For the compound [2H]C([2H])(O)C1(C([2H])([2H])O[C@]2(c3ccc(Cl)cc3)c3c(F)cc(C(C)(C)O)cc3C(=O)N2Cc2ncc(C#N)cn2)CC1 , what IC50 is on record?
Result :: 3.1

Query :: Which IC50 value belongs to C[C@H](c1ccc(Cl)cn1)N1C(=O)c2cc(C(C)(C)O)cc(F)c2[C@]1(OCC1(C(N)=O)CC1)c1ccc(Cl)cc1 ?
Result :: 82

Query :: Dear colleague, I am looking for the recorded IC50 of the following compound: CC(C)(O)c1cc(F)c2c(c1)C(=O)N(Cc1ccc(C#N)cn1)[C@@]2(OCC1(CO)CC1)c1ccc(Cl)cc1
Result :: 5.1

Give IC50 for each of the items listed below.
1. [2H]C([2H])(O)C1(C([2H])([2H])O[C@]2(c3ccc(Cl)cc3)c3c(F)cc(C(C)(C)O)cc3C(=O)N2Cc2ccc(C#N)cn2)CC1
2. C[C@@H](c1ccc(Cl)cn1)N1C(=O)c2cc(C(C)(C)O)cc(F)c2[C@]1(OCC1(C(N)=O)CC1)c1ccc(Cl)cc1

Result ::
3.8
3.2

---

Exercise: state measured inhibition at 0.1 µM for each of the compounds provided.
TARGET_UNDER_TEST: MDM2-p53 interaction (in vitro translated MDM2, biotinylated IP3 peptide) (Homo sapiens, UniProt Q00987)
PROTOCOL_SUMMARY: MDM2-p53 interaction 96-well plate binding assay (ELISA)
CONDITION_INFO: @ 0.10 μM; read-out: MDM2 % @ concentration
Numbers only, in %.

Give inhibition at 0.1 µM for all compounds that follow.
1. CO[C@]1(c2ccc(Cl)cc2)c2ccc(C(C)(O)CN3CCOCC3=O)cc2C(=O)N1Cc1ccc(Cl)cn1 (single isomer, unassigned) [Example 328]
2. CCC(O)(c1cc(F)c2c(c1)C(=O)N(Cc1ccc(C#N)cn1)[C@@]2(OC[C@@H](C)O)c1ccc(Cl)cc1)C1(F)CCOCC1 (single isomer, unassigned) [Example 498]
3. CO[C@]1(c2ccc(Cl)cc2)c2ccc(C(C)(O)CN3CCNC3=O)cc2C(=O)N1Cc1ccc(Cl)cn1 (single isomer, unassigned) [Example 158]
4. CCC(O)(c1cc(F)c2c(c1)C(=O)N(Cc1ncc(C#N)cn1)[C@@]2(OCC1(C#N)CC1)c1ccc(Cl)cc1)c1cn(C)cn1 (single isomer, unassigned) [Example 463]

Result ::
[42, 32, 57, 73]

---

TARGET_UNDER_TEST: MDM2-p53 interaction (in vitro translated MDM2, biotinylated IP3 peptide) (Homo sapiens)
PROTOCOL_SUMMARY: MDM2-p53 interaction 96-well plate binding assay (ELISA)
CONDITION_INFO: @ 0.10 μM; read-out: MDM2 % @ concentration
Label scheme for inhibition at 0.1 µM: lower than 50% is not met, 50% and above is met.

Sample answers from the record:
Query :: Please check the record CCC(O)(c1cc(F)c2c(c1)C(=O)N(Cc1ncc(Cl)cc1O)[C@@]2(O[C@H]1C[C@@H](O)C1)c1ccc(Cl)cc1)c1cn(C)cn1 (single isomer, unassigned) and state if its inhibition at 0.1 µM is at or above 50%.
Result :: met

Query :: Check this molecule for inhibition at 0.1 µM at or above 50%: CCC(O)(c1cc(F)c2c(c1)C(=O)N(Cc1ccc(C#N)cn1)[C@@]2(OCCOC)c1ccc(Cl)cc1)c1cn(C)cn1 (single isomer, unassigned)
Result :: met

Please find the next molecule below.
Query :: Confirm if inhibition at 0.1 µM reported for the molecule CCC(O)(c1cc(F)c2c(c1)C(=O)N(Cc1ccc(C#N)cn1)[C@@]2(OCCO)c1ccc(Cl)cc1)C1(F)CCOCC1 (single isomer, unassigned) is 50% or above.
Result :: not met

---

TARGET_UNDER_TEST: MDM2-p53 interaction (in vitro translated MDM2, biotinylated IP3 peptide) (Homo sapiens)
PROTOCOL_SUMMARY: MDM2-p53 interaction 96-well plate binding assay (ELISA)
CONDITION_INFO: @ 0.10 μM; read-out: MDM2 % @ concentration
Kindly state inhibition at 0.1 µM for each of the entries shown.
Numbers only, in %.

Query :: What value of inhibition at 0.1 µM has been reported for the following compound? COc1ccc(CN2C(=O)c3cc(C(C)(O)c4cnn(C)c4)cc(F)c3[C@]2(OCC2(O)CC2)c2ccc(Cl)cc2)nc1 (stereo partly drawn)
Result :: 63

Query :: I am curious: what inhibition at 0.1 µM value has been reported for CCCC(O)(c1cc(F)c2c(c1)C(=O)N(Cc1ccc(C#N)cn1)[C@@]2(O[C@H]1CCOC1)c1ccc(Cl)cc1)c1cn(C)cn1 (single isomer, unassigned) ?
Result :: 44

Switching to the query record.
Query :: Name the reported inhibition at 0.1 µM value associated with the compound Cn1cc(C(C)(O)c2cc(F)c3c(c2)C(=O)N(Cc2ncc(F)cc2F)[C@@]3(OCC2(O)CC2)c2ccc(Cl)cc2)cn1 (single isomer, unassigned)
Result :: 25
